system: MT2; test: Antiproliferative activity against human MT2 cells after 72 hrs by MTT assay; format: functional; details: MT2, 72 h
Field: GI50. Provide a value for each of the compounds that follow.
// return numeric value only (unit: µM, not printed)

[Q] For the compound shown here, O=C(COc1ccc2oc(-c3ccccc3)cc(=O)c2c1)Nc1ccccc1 , give the reported GI50.
[A] 1.43

[Q] Would you mind doing O=C(COc1ccc2c(=O)c(-c3ccccc3)coc2c1)Nc1ccc2ccccc2c1 as well?
[A] 7.68

[Q] And COc1ccc(NC(=O)COc2ccc3c(=O)c(-c4ccccc4)coc3c2)cc1 ?
[A] 4.55

[Q] For O=C(COc1ccc2oc(-c3ccccc3)cc(=O)c2c1)Nc1ccc(F)cc1 then?
[A] 0.47

[Q] COc1ccc(NC(=O)COc2ccc3oc(-c4ccccc4)cc(=O)c3c2)cc1 , same question.
[A] 3.01

----------
system: MT2; assay: Antiproliferative activity against human MT2 cells after 72 hrs by MTT assay; assay type: functional; conditions: MT2, 72 h
Give GI50 for every item shown.
A number alone suffices; assume µM.

[Q] I am curious: what GI50 value has been reported for O=C(COc1ccc2c(=O)cc(-c3ccccc3)oc2c1)Nc1ccc(-c2ccccc2)cc1 ?
[A] 2.48

[Q] Try the molecule O=C(COc1c(-c2ccccc2)oc2ccccc2c1=O)Nc1ccccc1
[A] 6.72

[Q] Could you do the same for O=C(COc1ccc2c(=O)c(-c3ccccc3)coc2c1)Nc1ccc(F)cc1 , please?
[A] 2.5

[Q] Same lookup for COc1ccc(NC(=O)COc2ccc3c(=O)cc(-c4ccccc4)oc3c2)cc1 , please.
[A] 6.7

[Q] Also O=C(COc1ccc2c(=O)cc(-c3ccccc3)oc2c1)Nc1ccc(F)cc1 ?
[A] 6.41

----------
assay: Antiproliferative activity against human NPC-TW01 cells after 72 hrs by MTT assay; type: functional; settings: NPC-TW01, 72 h
measured quantity: GI50 (µM)
Give the value, in units of µM, as a plain number.

[Q] Tell me the measured GI50 of O=C(COc1c(-c2ccccc2)oc2ccccc2c1=O)Nc1ccc(F)cc1 , please.
[A] 9.5

[Q] Next entry: COc1ccc(NC(=O)COc2c(-c3ccccc3)oc3ccccc3c2=O)cc1
[A] 5.48

[Q] Try this compound next: O=C(COc1ccc2oc(-c3ccccc3)cc(=O)c2c1)Nc1ccc(F)cc1
[A] 0.74

[Q] How about this compound: O=C(COc1c(-c2ccccc2)oc2ccccc2c1=O)Nc1ccc2ccccc2c1
[A] 6.52

[Q] Record: COc1ccc(NC(=O)COc2ccc3c(=O)cc(-c4ccccc4)oc3c2)cc1
[A] 5.97

[Q] What about this compound? O=C(COc1ccc2oc(-c3ccccc3)cc(=O)c2c1)Nc1ccc2ccccc2c1
[A] 6.75

[Q] Can you check O=C(COc1ccc2c(=O)cc(-c3ccccc3)oc2c1)Nc1ccc(-c2ccccc2)cc1 next?
[A] 1.61

----------
test: Antiproliferative activity against human NPC-TW01 cells after 72 hrs by MTT assay; format: functional; conditions: NPC-TW01, 72 h
measured quantity: GI50 (nM)
Quick note: give the figure in nM, leave out the unit.

[Q] So what's the measured GI50 for this one? COc1ccc(NC(=O)COc2ccc3oc(-c4ccccc4)cc(=O)c3c2)cc1
[A] 710

[Q] Now consider O=C(COc1ccc2c(=O)c(-c3ccccc3)coc2c1)Nc1ccc(F)cc1 and answer again.
[A] 550

[Q] Check O=C(COc1ccc2c(=O)c(-c3ccccc3)coc2c1)Nc1ccc2ccccc2c1 too.
[A] 1370

[Q] Entry COc1ccc(NC(=O)COc2ccc3c(=O)c(-c4ccccc4)coc3c2)cc1 please
[A] 6700

[Q] Next up: O=C(COc1ccc2oc(-c3ccccc3)cc(=O)c2c1)Nc1ccc(-c2ccccc2)cc1
[A] 640

[Q] Next entry: O=C(COc1ccc2oc(-c3ccccc3)cc(=O)c2c1)Nc1ccccc1
[A] 1260

[Q] Now this one: O=C(COc1ccc2c(=O)c(-c3ccccc3)coc2c1)Nc1ccc(-c2ccccc2)cc1
[A] 1750

----------
experiment: Antiproliferative activity against human NPC-TW01 cells after 72 hrs by MTT assay; assay type: functional; settings: NPC-TW01, 72 h
I'd appreciate it if you could supply GI50 values for the items below.

[Q] Item O=C(COc1ccc2c(=O)cc(-c3ccccc3)oc2c1)Nc1ccc2ccccc2c1 has what recorded GI50?
[A] > 10 µM

[Q] Item: O=C(COc1ccc2c(=O)cc(-c3ccccc3)oc2c1)Nc1ccc(F)cc1
[A] > 10 µM

[Q] Same lookup for O=C(COc1c(-c2ccccc2)oc2ccccc2c1=O)Nc1ccccc1 , please.
[A] > 10 µM

----------
experiment: Antiproliferative activity against human NPC-TW01 cells after 72 hrs by MTT assay; assay type: functional; details: NPC-TW01, 72 h
measured quantity: GI50

[Q] GI50 lookup needed for O=C(COc1ccc2c(=O)c(-c3ccccc3)coc2c1)Nc1ccccc1 , thanks.
[A] > 10 µM

[Q] For O=C(COc1c(-c2ccccc2)oc2ccccc2c1=O)Nc1ccc(-c2ccccc2)cc1 then?
[A] > 10 µM

[Q] // next record O=C(COc1ccc2c(=O)cc(-c3ccccc3)oc2c1)Nc1ccccc1
[A] > 10 µM
